Data origin, for the record: patent US20250304650A1

# target_entity: feline FcRn (FCN-F82W3, Acrobiosystems) (feline)
# measurement_notes: SPR Carterra, IgG coupled, pH 6.0
Below is a list of entries, each paired with its recorded kon value.
Expressed in M⁻¹ s⁻¹, but write only the number.

Reported kon for anti-NGF feline IgG1a, Fc variant S434Y, S426L (antibody, part only; not given: anti-NGF variable domains, light chain, not shown: another chain or arm of the molecule; small tags and cut ends) Fc: PPEMLGGPSIFIFPPKPKDTLSISRTPEVTCLVVDLGPDDSDVQITWFVDNTQVYTAKTSPREEQFNSTYRVVSVLPILHQDWLKGKEFKCKVNSKSLPSPIERTISKAKGQPHEPQVYVLPPAQEELSRNKVSVTCLIKSFHPPDIAVEWEITGQPEPENNYRTTPPQLDSDGTYFVYSKLSVDRSHWQRGNTYTCLVSHEALHYHHTQKSLTQSPGK was 1.48e+06
